Quick reference: IC50 of the listed items.
Test system: TGF-β-stimulated SMAD3 phosphorylation in BEAS-2B cells
METHOD: Cellular ALK5 potency assay, inhibition of TGF-β stimulated pSMAD3 formation in BEAS-2B cells
Format: cell-based
COND: Homo sapiens, pSMAD3, TGF-β 10 ng/mL, read-out: BEAS2B pIC50 (converted)

## Task Note down IC50 recorded for Cc1cccc(-c2nc(C)cc(Nc3ccnc(Nc4ccc(N5CCNCC5)cc4)n3)n2)n1 [Compound 482]
## Result 0.0251 to 0.158 µM

## Task Note down IC50 recorded for COC(=O)CC1CN(c2ccc(Nc3nccc(Nc4ccnc(-c5cccc(C)n5)n4)n3)cc2)CCN1 (stereo not shown) [Compound 491]
## Result 0.0251 to 0.158 µM

## Task Note down IC50 recorded for COC(=O)Cc1ccc(Nc2nccc(Nc3nc(-c4cccc(C)n4)nn4cccc34)n2)cc1 [Compound 1019]
## Result 0.2 to 1.26 µM

## Task Note down IC50 recorded for Cc1cccc(-c2nccc(Nc3ccnc(Nc4ccc(N5CCN(CC6CNC6)CC5)cc4)n3)n2)n1 [Compound 380]
## Result 0.0251 to 0.158 µM

----------
Tested on: TGF-β-stimulated SMAD3 phosphorylation in BEAS-2B cells
METHOD: Cellular ALK5 potency assay, inhibition of TGF-β stimulated pSMAD3 formation in BEAS-2B cells
Type: cell-based
COND: Homo sapiens, pSMAD3, TGF-β 10 ng/mL, read-out: BEAS2B pIC50 (converted)
MEASURED ATTRIBUTE: IC50

Known IC50 results, listed for orientation:
COC(=O)C1CN(CCNc2ccc(Nc3nccc(Nc4ccnc(-c5cccc(C)n5)n4)n3)cc2)CCN1C(C)C (stereo not drawn) = 25.1 to 158 nM
CC[C@H](C)OC(=O)C1CN(Cc2ccc(Nc3nccc(Nc4ccnc(-c5cccc(C)n5)n4)n3)cc2)CCN1 (mixture of isomers) = 25.1 to 158 nM
Cc1cccc(-c2nc(CC(=O)NCCO)cc(Nc3ccnc(Nc4ccc(N5CCNCC5)cc4)n3)n2)n1 = 200 to 1260 nM
Cc1cccc(-c2nccc(Nc3ccnc(Nc4ccc5c(c4)CCN(C(C)C)CC5)n3)n2)n1 = 25.1 to 158 nM
Cc1cccc(-c2nccc(Nc3ccnc(Nc4ccc(N5CCC(NCC(C)C)CC5)cc4)n3)n2)n1 = 25.1 to 158 nM

## Task Note down IC50 recorded for "Cc1cccc(-c2nccc(Nc3ccnc(Nc4ccc(N5CCN(Cc6ccccc6)CC5)cc4)n3)n2)n1"
## Result 25.1 to 158 nM

## Task Note down IC50 recorded for "Cc1cccc(-c2nccc(Nc3ccnc(Nc4csc(C(=O)NC5CNC5)c4)n3)n2)n1"
## Result 25.1 to 158 nM

## Task Note down IC50 recorded for "Cc1cccc(-c2nccc(Nc3ccnc(Nc4cncc(C(=O)OC[C@H]5CCCCN5)c4)n3)n2)n1"
## Result 25.1 to 158 nM

## Task Note down IC50 recorded for "Cc1cccc(-c2nccc(Nc3ccnc(Nc4nc(C)cs4)n3)n2)n1"
## Result 25.1 to 158 nM

## Task Note down IC50 recorded for "Cc1cccc(-c2nccc(Nc3ccnc(Nc4ccc(CN5CCOCC5)cc4)n3)n2)n1"
## Result 25.1 to 158 nM

## Task Note down IC50 recorded for "Cc1cccc(-c2cc(Nc3ccnc(Nc4ccc(N5CCOCC5)cc4)n3)c3cc[nH]c3n2)n1"
## Result 200 to 1260 nM

## Task Note down IC50 recorded for "Cc1cccc(-c2nccc(Nc3ccnc(Nc4cccc(S(=O)(=O)NCCN(C)C)c4)n3)n2)n1"
## Result 25.1 to 158 nM

## Task Note down IC50 recorded for "CCN1CCN(c2ccc(Nc3nccc(Nc4ccnc(-c5cccc(C)n5)n4)n3)cc2)CC1"
## Result 25.1 to 158 nM

## Task Note down IC50 recorded for "Cc1cccc(-c2nccc(Nc3ccnc(Nc4ccc(CN5CCN[C@@H](C(=O)O)C5)cc4)n3)n2)n1"
## Result 200 to 1260 nM

## Task Note down IC50 recorded for "Cc1cccc(-c2nccc(Nc3ccnc(Nc4ccc(CN5CC(C(=O)O[C@H]6CCNC6)C5)cc4)n3)n2)n1"
## Result 25.1 to 158 nM
